- Tested Target: Amyloid-beta precursor protein (Homo sapiens) (UniProt P05067)
- Sequence (P05067 whole entry): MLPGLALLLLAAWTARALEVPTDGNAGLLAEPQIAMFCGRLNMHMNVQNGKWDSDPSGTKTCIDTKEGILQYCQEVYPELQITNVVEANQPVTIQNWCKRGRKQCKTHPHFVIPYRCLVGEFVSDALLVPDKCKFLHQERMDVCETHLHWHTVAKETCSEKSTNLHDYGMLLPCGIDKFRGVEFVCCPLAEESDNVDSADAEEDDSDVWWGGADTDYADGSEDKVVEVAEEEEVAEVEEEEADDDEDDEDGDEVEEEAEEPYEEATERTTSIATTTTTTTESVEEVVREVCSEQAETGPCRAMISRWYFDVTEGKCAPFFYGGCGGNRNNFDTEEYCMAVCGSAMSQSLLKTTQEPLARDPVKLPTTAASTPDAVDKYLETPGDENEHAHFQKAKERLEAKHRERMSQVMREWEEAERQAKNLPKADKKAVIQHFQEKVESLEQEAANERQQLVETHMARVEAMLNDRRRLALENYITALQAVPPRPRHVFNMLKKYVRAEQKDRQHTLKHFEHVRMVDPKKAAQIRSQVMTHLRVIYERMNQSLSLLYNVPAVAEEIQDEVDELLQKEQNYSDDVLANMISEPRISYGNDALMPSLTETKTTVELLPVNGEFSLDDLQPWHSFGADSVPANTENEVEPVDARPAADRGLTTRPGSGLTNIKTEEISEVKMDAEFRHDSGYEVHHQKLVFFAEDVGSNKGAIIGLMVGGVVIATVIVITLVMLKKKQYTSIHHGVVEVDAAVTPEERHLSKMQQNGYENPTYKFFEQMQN
- Test Method Notes: Inhibition of self-induced amyloid beta (1 to 40) (unknown origin) fibril aggregation assessed as fluorescence emission at 100 uM measured on day 7 by thioflavin-T based assay
Property Name: Flu intensity
Give a plain numeric answer without units written out.

                                     smiles  property_name  endpoint_result
0  Cl.Oc1ccc(/C=N/CCNCCn2cnc3ccccc32)c(O)c1  Flu intensity              225
1            Oc1ccc(/C=C/c2cc(O)cc(O)c2)cc1  Flu intensity              294
2       O=C(NCCNc1ccnc2cc(Cl)ccc12)c1cnccn1  Flu intensity              707

Lab note: Amyloid-beta precursor protein (Homo sapiens) (UniProt P05067) assay, enter Flu intensity for "Cl.Nc1ncnc2c1ncn2CCNCC/N=C/c1ccc(O)cc1O" here
356

Lab note: Amyloid-beta precursor protein (Homo sapiens) (UniProt P05067) assay, enter Flu intensity for "Oc1ccc(/C=N/CCn2ccc3ccccc32)c(O)c1" here
336

Lab note: Amyloid-beta precursor protein (Homo sapiens) (UniProt P05067) assay, enter Flu intensity for "Oc1ccc(/C=N/CCn2ccc3cccnc32)c(O)c1" here
368

Lab note: Amyloid-beta precursor protein (Homo sapiens) (UniProt P05067) assay, enter Flu intensity for "Oc1ccccc1/C=N/CCNc1ccnc2cc(Cl)ccc12" here
458
